Assay: VP16 transactivation reporter inhibitors, counter-screen for LRH-1 inverse agonist project, cell-based, luminescence, high throughput (AID 651615)
Details: Gal4-VP16 luciferase reporter cells, at 3.6 µM, hits give high values
Assign y to entries whose inhibition meets or exceeds 20%; assign n to the rest.

Test whether the compound CCc1nc(N)nc(N)c1-c1ccc(N(C)Cc2ccccc2)c([N+](=O)[O-])c1 records inhibition of 20% or higher.
y

Is reported inhibition greater than or equal to 20% here: CC(O)(c1ccc(F)c(F)c1)c1nc(-c2ccc(S(C)(=O)=O)cc2)cs1 (stereo not given)
n

Entry Cc1cc(=O)oc2cc(O)cc(OCc3ccccc3)c12 : is its inhibition no less than 20%?
n

Confirm if inhibition reported for the compound CCc1cc(=O)oc2c(C)c(OCC(=O)NCCCN3CCOCC3)ccc12 is 20% or above.
n
